// provenance: ChEMBL document CHEMBL1201862

Test system: PC-3
testDetails: NCI tumour cell line growth inhibition, 48 h
The source made the active and inactive calls. Rule as the data show it: active = GI50 up to about 1.1 µM and inactive = higher.
Listed below: GI50 values for each entry.

[
  {
    "compound": "C=C1C(=O)CCC1C(=O)O (stereo not drawn)",
    "tgt": "PC-3",
    "GI50": "> 100 µM (inactive)"
  },
  {
    "compound": "O=C1CC(C(CC(=O)c2ccccc2)c2ccccc2)C(=O)c2ccccc2N1 (stereo not drawn)",
    "tgt": "PC-3",
    "GI50": "25.5 µM (inactive)"
  },
  {
    "compound": "O=C(CCCN1CC=C(n2c(=O)[nH]c3ccccc32)CC1)c1cccs1",
    "tgt": "PC-3",
    "GI50": "93.3 µM (inactive)"
  },
  {
    "compound": "CNC(=O)c1nn[nH]c1O",
    "tgt": "PC-3",
    "GI50": "> 100 µM (inactive)"
  },
  {
    "compound": "CC(=O)C1=C(c2ccccc2)N(C2OC(CO)C(O)C(O)C2O)C(S)=C(C#N)C1c1ccc(Cl)cc1 (stereo not drawn)",
    "tgt": "PC-3",
    "GI50": "22.1 µM (inactive)"
  },
  {
    "compound": "O=C1c2ccc3ccccc3c2CCC1N1CCCCC1 (stereo not drawn)",
    "tgt": "PC-3",
    "GI50": "17.4 µM (inactive)"
  },
  {
    "compound": "Cc1ncc([N+](=O)[O-])n1CCNC(=O)CCC(=O)NCCCn1ccnc1[N+](=O)[O-]",
    "tgt": "PC-3",
    "GI50": "> 100 µM (inactive)"
  },
  {
    "compound": "O=C1NC(Nc2ccccc2)=N/C1=C\\c1c(Cl)cccc1Cl",
    "tgt": "PC-3",
    "GI50": "17.8 µM (inactive)"
  },
  {
    "compound": "Nc1ccc(-c2nc3ccccc3s2)cc1CO",
    "tgt": "PC-3",
    "GI50": "66.8 µM (inactive)"
  },
  {
    "compound": "CC1C2CC(CC2=O)C1(C)C (stereo not drawn)",
    "tgt": "PC-3",
    "GI50": "> 100 µM (inactive)"
  },
  {
    "compound": "O=c1c2ccccc2nc2[nH][nH]c(=S)n12",
    "tgt": "PC-3",
    "GI50": "> 100 µM (inactive)"
  },
  {
    "compound": "COC(=O)c1c(O)ccc2c1c1c(n2CCc2ccccc2)C(=O)c2ccccc2C1=O",
    "tgt": "PC-3",
    "GI50": "11.6 µM (inactive)"
  },
  {
    "compound": "Clc1nc2c(N3CCCC3)nc(N3CCNCC3)nc2[nH]1",
    "tgt": "PC-3",
    "GI50": "17.8 µM (inactive)"
  },
  {
    "compound": "C=CCSSCC=C",
    "tgt": "PC-3",
    "GI50": "39.8 µM (inactive)"
  },
  {
    "compound": "C=C1CCC2C(C)(CO)C(O)CCC2(C)C1C/C=C1\\C(=O)OCC1O (stereo not drawn)",
    "tgt": "PC-3",
    "GI50": "20.1 µM (inactive)"
  },
  {
    "compound": "Cc1ccc(NC(=O)S(N)(c2ccc(C)cc2)[N+](=O)[O-])cc1 (stereo not drawn)",
    "tgt": "PC-3",
    "GI50": "> 100 µM (inactive)"
  },
  {
    "compound": "Cc1ccc2c(c1)NC(=O)CCSSCCC(=O)N2",
    "tgt": "PC-3",
    "GI50": "> 100 µM (inactive)"
  },
  {
    "compound": "COc1ccc(C)cc1Nc1nnc(-c2ccc(N)cc2)s1",
    "tgt": "PC-3",
    "GI50": "96.4 µM (inactive)"
  },
  {
    "compound": "O=C(c1ccccc1)C1C(c2ccccc2)N1S(=O)(=O)c1ccccc1 (stereo not drawn)",
    "tgt": "PC-3",
    "GI50": "> 100 µM (inactive)"
  },
  {
    "compound": "CCc1nc(N)nc(N)c1-c1ccc(N2CCOCC2)c(N=[N+]=[N-])c1",
    "tgt": "PC-3",
    "GI50": "42.6 µM (inactive)"
  },
  {
    "compound": "Cc1nc2c3c(ncn2n1)Oc1c(c(-c2ccccc2)nn1-c1ccccc1)C3c1ccc(Cl)cc1 (stereo not drawn)",
    "tgt": "PC-3",
    "GI50": "> 100 µM (inactive)"
  },
  {
    "compound": "Oc1ccc(Nc2nc(Cl)c3nc[nH]c3n2)cc1",
    "tgt": "PC-3",
    "GI50": "> 100 µM (inactive)"
  },
  {
    "compound": "CC(=O)ON(OC(C)=O)c1ccc(C)cc1",
    "tgt": "PC-3",
    "GI50": "> 100 µM (inactive)"
  }
]
